binding signal values by entry
- measured-target: POU2 (OCT2 POU domain);BOB1 (OBF1, OCA-B) (human;human, UniProt P09086;Q16633 175-386;1-256, |)
- Sequence 1: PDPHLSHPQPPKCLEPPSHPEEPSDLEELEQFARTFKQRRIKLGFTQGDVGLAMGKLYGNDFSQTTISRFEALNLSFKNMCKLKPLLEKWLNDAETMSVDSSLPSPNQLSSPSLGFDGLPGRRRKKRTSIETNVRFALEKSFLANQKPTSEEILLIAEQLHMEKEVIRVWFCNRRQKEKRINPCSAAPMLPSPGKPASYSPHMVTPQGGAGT
- Sequence 2: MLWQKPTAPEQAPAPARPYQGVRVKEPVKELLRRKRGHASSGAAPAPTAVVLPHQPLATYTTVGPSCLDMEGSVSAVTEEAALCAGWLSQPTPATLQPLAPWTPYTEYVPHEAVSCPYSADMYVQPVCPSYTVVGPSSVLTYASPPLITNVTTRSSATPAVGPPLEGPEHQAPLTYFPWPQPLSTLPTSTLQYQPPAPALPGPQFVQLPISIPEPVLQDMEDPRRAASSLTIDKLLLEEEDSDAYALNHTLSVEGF
- procedure-summary: EMSA-SELEX-seq; with BOB1 (ternary complex band); 20 mM Tris-HCl pH 7.6, 140 mM NaCl, 10% glycerol, 0.5 mM EDTA, 0.05% Triton X-100, 0.1 mg/mL BSA, 0.1 mg/mL poly(dI-dC), 5 mM DTT, room temperature, 20 min; high values mean tight binding
- condition-info: protein: recombinant;recombinant; copies: 1;1; dsDNA, one strand shown
result-type: binding signal

sequence_input=ATGAAAAG result_type="binding signal" reading="0.0867 % of ANNNNAAN 8-mers"
sequence_input=AGGGTAAT result_type="binding signal" reading="0.129 % of ANNNNAAN 8-mers"
sequence_input=ACGAAAAC result_type="binding signal" reading="0.0264 % of ANNNNAAN 8-mers"
sequence_input=ACCGGAAT result_type="binding signal" reading="0.0454 % of ANNNNAAN 8-mers"
sequence_input=ACAAGAAT result_type="binding signal" reading="0.0512 % of ANNNNAAN 8-mers"
sequence_input=ATGTCAAT result_type="binding signal" reading="0.0743 % of ANNNNAAN 8-mers"
sequence_input=AAACGAAT result_type="binding signal" reading="0.0792 % of ANNNNAAN 8-mers"
sequence_input=ATAAAAAG result_type="binding signal" reading="0.0735 % of ANNNNAAN 8-mers"
sequence_input=ATTCGAAG result_type="binding signal" reading="0.0405 % of ANNNNAAN 8-mers"
sequence_input=ATGATAAG result_type="binding signal" reading="0.0768 % of ANNNNAAN 8-mers"
sequence_input=AACTTAAA result_type="binding signal" reading="0.038 % of ANNNNAAN 8-mers"
sequence_input=AGGGAAAA result_type="binding signal" reading="0.119 % of ANNNNAAN 8-mers"
sequence_input=AGGTGAAT result_type="binding signal" reading="0.102 % of ANNNNAAN 8-mers"
sequence_input=AGAGGAAA result_type="binding signal" reading="0.0619 % of ANNNNAAN 8-mers"
sequence_input=ACCCGAAC result_type="binding signal" reading="0.0132 % of ANNNNAAN 8-mers"
sequence_input=ACCGTAAC result_type="binding signal" reading="0.0272 % of ANNNNAAN 8-mers"
sequence_input=ACCCAAAC result_type="binding signal" reading="0.0107 % of ANNNNAAN 8-mers"
sequence_input=ACAGCAAT result_type="binding signal" reading="0.0215 % of ANNNNAAN 8-mers"
sequence_input=AGCTTAAA result_type="binding signal" reading="0.0421 % of ANNNNAAN 8-mers"
sequence_input=AGCTCAAA result_type="binding signal" reading="0.0264 % of ANNNNAAN 8-mers"
sequence_input=AAGATAAA result_type="binding signal" reading="0.0405 % of ANNNNAAN 8-mers"
sequence_input=AATCGAAT result_type="binding signal" reading="0.0916 % of ANNNNAAN 8-mers"
sequence_input=ACAGGAAA result_type="binding signal" reading="0.0603 % of ANNNNAAN 8-mers"
sequence_input=ACTGCAAG result_type="binding signal" reading="0.0107 % of ANNNNAAN 8-mers"
sequence_input=AGATGAAG result_type="binding signal" reading="0.0297 % of ANNNNAAN 8-mers"
sequence_input=ATATTAAC result_type="binding signal" reading="0.0751 % of ANNNNAAN 8-mers"
sequence_input=AGCAAAAA result_type="binding signal" reading="0.0644 % of ANNNNAAN 8-mers"
sequence_input=ATTAGAAG result_type="binding signal" reading="0.066 % of ANNNNAAN 8-mers"
sequence_input=AGATGAAA result_type="binding signal" reading="0.0611 % of ANNNNAAN 8-mers"
sequence_input=ACGCTAAA result_type="binding signal" reading="0.0322 % of ANNNNAAN 8-mers"
sequence_input=AACTCAAT result_type="binding signal" reading="0.0314 % of ANNNNAAN 8-mers"
sequence_input=AAGAAAAC result_type="binding signal" reading="0.0355 % of ANNNNAAN 8-mers"
sequence_input=ATGCAAAG result_type="binding signal" reading="2.27 % of ANNNNAAN 8-mers"
sequence_input=AGGCTAAC result_type="binding signal" reading="0.0223 % of ANNNNAAN 8-mers"
sequence_input=ATTAGAAA result_type="binding signal" reading="0.0892 % of ANNNNAAN 8-mers"
sequence_input=ACTTTAAC result_type="binding signal" reading="0.0355 % of ANNNNAAN 8-mers"
sequence_input=ATGCAAAT result_type="binding signal" reading="12.6 % of ANNNNAAN 8-mers"
sequence_input=AACGAAAT result_type="binding signal" reading="0.0636 % of ANNNNAAN 8-mers"
sequence_input=ACAATAAT result_type="binding signal" reading="0.0528 % of ANNNNAAN 8-mers"
sequence_input=ATACAAAT result_type="binding signal" reading="0.498 % of ANNNNAAN 8-mers"
sequence_input=ATTACAAA result_type="binding signal" reading="0.0685 % of ANNNNAAN 8-mers"
sequence_input=AGCGTAAC result_type="binding signal" reading="0.0149 % of ANNNNAAN 8-mers"
sequence_input=ACTACAAC result_type="binding signal" reading="0.0173 % of ANNNNAAN 8-mers"
sequence_input=ATTCGAAC result_type="binding signal" reading="0.0396 % of ANNNNAAN 8-mers"
sequence_input=AAATAAAA result_type="binding signal" reading="0.171 % of ANNNNAAN 8-mers"
sequence_input=ATCAGAAA result_type="binding signal" reading="0.0438 % of ANNNNAAN 8-mers"
sequence_input=AGACGAAT result_type="binding signal" reading="0.0479 % of ANNNNAAN 8-mers"
sequence_input=ACAGGAAG result_type="binding signal" reading="0.0396 % of ANNNNAAN 8-mers"
sequence_input=ACGGCAAG result_type="binding signal" reading="0.0239 % of ANNNNAAN 8-mers"
sequence_input=AAAGGAAG result_type="binding signal" reading="0.0702 % of ANNNNAAN 8-mers"

Cited source: paper PMC10812921
